The measured values listed here are drawn from paper PMC4850295.

Kindly state fold change in fluorescence relative to zaprinast alone for each of the entries shown.
Test system: GCaMP5-expressing T. gondii
Construct: whole extracellular parasites expressing GCaMP5 Ca2+ sensor
Set-up: species or system GCaMP5-expressing Toxoplasma gondii, extracellular; GCaMP5 fluorescence (cytosolic Ca2+) after 100 uM zaprinast in compound-pretreated extracellular parasites, background-subtracted, relative to zaprinast alone
Details: 100 uM zaprinast stimulation; 10 min pretreatment; mean of two replicates; 0.23 h
Note: the reply should be a number with no unit written.

Query NCCCC(NC(=O)c1cc(Br)c(-c2ccnc3[nH]ccc23)s1)c1ccccc1 (stereo not drawn) [GSK1287544A] on GCaMP5-expressing T. gondii; fold change in fluorescence relative to zaprinast alone returned: 0.7469

Query CCCN1CCC=C(c2ccc(Nc3nc(Nc4ccccc4C(N)=O)c4cc[nH]c4n3)c(C)c2)C1 [GSK994854A] on GCaMP5-expressing T. gondii; fold change in fluorescence relative to zaprinast alone returned: 1.737

Query Nc1ncnc2occ(-c3ccc(NC(=O)Nc4cc(C(F)(F)F)cc(C(F)(F)F)c4)cc3)c12 [GW795486X] on GCaMP5-expressing T. gondii; fold change in fluorescence relative to zaprinast alone returned: 0.08819

Query COc1cccc(-n2nc(C)c3c(N/N=C(\C)c4ccncc4)ncnc32)c1 [GW809885X] on GCaMP5-expressing T. gondii; fold change in fluorescence relative to zaprinast alone returned: 1.233

Query CSc1nccc(-c2c(-c3ccc(F)cc3)ncn2CCCN2CCOCC2)n1 on GCaMP5-expressing T. gondii; fold change in fluorescence relative to zaprinast alone returned: 0.6021

Query CCN(CC)S(=O)(=O)c1ccc(OC)c(Nc2ncc(-c3ccccc3)o2)c1 [GW572401X] on GCaMP5-expressing T. gondii; fold change in fluorescence relative to zaprinast alone returned: 1.034

Query O=C(Nc1n[nH]c2nc(-c3ccc(O)cc3)ccc12)C1CC1 on GCaMP5-expressing T. gondii; fold change in fluorescence relative to zaprinast alone returned: 1.137

Query Cn1cncc1C(=O)NC1CCN(c2ccnc(Nc3ccc(F)cc3)n2)C1 (stereo not drawn) [GSK1379717A] on GCaMP5-expressing T. gondii; fold change in fluorescence relative to zaprinast alone returned: 1.089

Query CN1CCC(n2cnc(-c3ccc(F)cc3)c2-c2ccnc(NCCO)n2)CC1 on GCaMP5-expressing T. gondii; fold change in fluorescence relative to zaprinast alone returned: 1.236

Query COc1cc2ncn(-c3cc(O[C@@H](C)c4ccccc4Cl)c(C(N)=O)s3)c2cc1OC [GSK237700A] on GCaMP5-expressing T. gondii; fold change in fluorescence relative to zaprinast alone returned: 1.147

Query CN(C)CC(O)COc1ccc(Nc2nccc(-c3cnn4nc(N5CCOCC5)ccc34)n2)cc1 (stereo not drawn) [GW767488X] on GCaMP5-expressing T. gondii; fold change in fluorescence relative to zaprinast alone returned: 0.9765

Query Cc1[nH]nc2cc(Nc3ccnc(Nc4cccc(CN5CCOCC5)c4)n3)ccc12 [GW682569X] on GCaMP5-expressing T. gondii; fold change in fluorescence relative to zaprinast alone returned: 1.452

Query CCS(=O)(=O)c1ccc(OC)c(Nc2ncc(-c3ccc(F)cc3)o2)c1 [GW591947A] on GCaMP5-expressing T. gondii; fold change in fluorescence relative to zaprinast alone returned: 1.203

Query COc1cc(Nc2nccc(-c3c(-c4cccc(NC(=O)c5c(F)cccc5F)c4)nn4ncccc34)n2)cc(OC)c1OC [GSK327238A] on GCaMP5-expressing T. gondii; fold change in fluorescence relative to zaprinast alone returned: 1.28

Query CS(=O)(=O)Nc1ccc(N/C=C2\C(=O)Nc3ccccc32)cc1 [GW278681X] on GCaMP5-expressing T. gondii; fold change in fluorescence relative to zaprinast alone returned: 1.254

Query O=C1Nc2ccccc2/C1=C/Nc1ccc(-n2cncn2)cc1 [GW301789X] on GCaMP5-expressing T. gondii; fold change in fluorescence relative to zaprinast alone returned: 1.111

Query c1ccc(Nc2ncc(-c3ccccc3)o2)cc1 [GW549390X] on GCaMP5-expressing T. gondii; fold change in fluorescence relative to zaprinast alone returned: 1.88

Query c1ccc(-c2nc3n(c2-c2ccc4c(c2)OCO4)CCC3)nc1 on GCaMP5-expressing T. gondii; fold change in fluorescence relative to zaprinast alone returned: 0.8655

====

System: GCaMP5-expressing T. gondii
Construct: whole extracellular parasites expressing GCaMP5 Ca2+ sensor
Design: species or system GCaMP5-expressing Toxoplasma gondii, extracellular; GCaMP5 fluorescence (cytosolic Ca2+) after 100 uM zaprinast in compound-pretreated extracellular parasites, background-subtracted, relative to zaprinast alone
Details: 100 uM zaprinast stimulation; 10 min pretreatment; mean of two replicates; 0.23 h
Kindly state fold change in fluorescence relative to zaprinast alone for each of the entries shown.
Note: the reply should be a number with no unit written.

fold change in fluorescence relative to zaprinast alone measured on c1ccc(-c2ccc3c(-c4ccnc(Nc5ccc6c(c5)OCCO6)n4)cnn3n2)cc1 [GW818941X] = 0.7769

fold change in fluorescence relative to zaprinast alone measured on O=C(Nc1n[nH]c2nc(-c3ccccc3)c(Cl)cc12)C1CC1 = 1.154

fold change in fluorescence relative to zaprinast alone measured on COc1cc(N2CCN(C(C)C)CC2)ccc1Nc1nc(Nc2ccc(F)cc2C(N)=O)c2cc[nH]c2n1 [GSK1220512A] = 1.812

fold change in fluorescence relative to zaprinast alone measured on O=C(Nc1ccc2c(c1)OCO2)NC1CCN(c2ccnc(NCc3ccc(F)cc3)n2)CC1 [GSK1379859A] = 0.7305

fold change in fluorescence relative to zaprinast alone measured on CC(C)(C)c1ccc2nccc(Nc3cccc(O)c3)c2c1 [GW856795X] = 0.1562

fold change in fluorescence relative to zaprinast alone measured on Cc1cccc(-c2n[nH]cc2-c2ccc3ncccc3n2)n1 [GW786460X] = 1.226

fold change in fluorescence relative to zaprinast alone measured on CN(c1ccc(NC(=O)N2CCN(CCCN3CCOCC3)CC2)cc1)c1ccnc(Nc2ccc(CS(C)(=O)=O)cc2)n1 [GW830899A] = 1.092

fold change in fluorescence relative to zaprinast alone measured on FC(F)(F)c1cc(Br)cc(Nc2nccc(-c3cnn4ncccc34)n2)c1 [GW810578X] = 0.9472

fold change in fluorescence relative to zaprinast alone measured on C[C@@H](Oc1cc(-n2cnc3cc(-c4ccnc(N5CCN(C)CC5)c4)ccc32)sc1C(N)=O)c1ccccc1Cl [GSK641502A] = 1.062

fold change in fluorescence relative to zaprinast alone measured on CCn1c(-c2nonc2N)nc2c(C#CC(C)(C)O)nc(OCCN)cc21 [GSK902056A] = 1.153

fold change in fluorescence relative to zaprinast alone measured on CC(C)c1nc(-c2cccc(NS(=O)(=O)c3ccccc3)c2)c(-c2ccnc(Nc3ccc4c(c3)CN(C)CC4)n2)s1 [GSK1649598A] = 0.9359

fold change in fluorescence relative to zaprinast alone measured on NS(=O)(=O)c1ccc(N/C=C2\C(=O)Nc3ccc4ncsc4c32)cc1 [GW297361X] = 1.167

fold change in fluorescence relative to zaprinast alone measured on CS(=O)(=O)CCNCc1coc(-c2ccc3ncnc(Nc4ccc(OCc5ccccc5)cc4)c3c2)c1 [GW566221B] = 0.9966

fold change in fluorescence relative to zaprinast alone measured on O=c1[nH]ccc2nc(N[C@@H]3CCNC3)nc(Nc3cc(Cl)cc(Cl)c3)c12 [GSK2188764A (Enh2)] = 2.366

fold change in fluorescence relative to zaprinast alone measured on Nc1n[nH]c2cnc(-c3ccccc3)cc12 = 1.394

fold change in fluorescence relative to zaprinast alone measured on COc1ccc(Nc2nccc(N3CCC(NC(=O)Nc4cccc(OC)c4)C3)n2)cc1 (centres unmarked) [GSK1379742A] = 1.221

fold change in fluorescence relative to zaprinast alone measured on Cc1cccc(-c2nc(C)cc(Nc3ccncc3)n2)n1 [GSK257997A] = 0.832

====

Kindly state fold change in fluorescence relative to zaprinast alone for each of the entries shown.
System: GCaMP5-expressing T. gondii
Construct: whole extracellular parasites expressing GCaMP5 Ca2+ sensor
Design: species or system GCaMP5-expressing Toxoplasma gondii, extracellular; GCaMP5 fluorescence (cytosolic Ca2+) after 100 uM zaprinast in compound-pretreated extracellular parasites, background-subtracted, relative to zaprinast alone
Details: 100 uM zaprinast stimulation; 10 min pretreatment; mean of two replicates; 0.23 h
Note: the reply should be a number with no unit written.

Query COc1ccc(Nc2nccc(N3CCC(NS(=O)(=O)c4ccc(NC(C)=O)cc4)C3)n2)cc1 (stereo not shown) [GSK1379729A] on GCaMP5-expressing T. gondii; fold change in fluorescence relative to zaprinast alone returned: 1.531

Query O=C(NC1CCN(c2ccnc(Nc3ccc(F)cc3)n2)C1)c1cc2ccccc2s1 (stereo not shown) [GSK1379716A] on GCaMP5-expressing T. gondii; fold change in fluorescence relative to zaprinast alone returned: 1.103

Query Cc1cc(NCC(c2ccccc2)c2ccccc2)nc(NCc2ccc(C(F)(F)F)cc2)n1 [GW497681X] on GCaMP5-expressing T. gondii; fold change in fluorescence relative to zaprinast alone returned: 1.268

Query O=S(=O)(c1ccc(-c2ccnc3[nH]ccc23)cc1)N1CCCC1 [GSK846226A] on GCaMP5-expressing T. gondii; fold change in fluorescence relative to zaprinast alone returned: 1.029
